Where do these numbers come from? They come from PubChem BioAssay (NCI).

Test system: OVCAR-3 ovarian
protocol description: NCI tumour cell line growth inhibition, 48 h
measurement type: TGI

>>> print(df.to_string())
                                   molecule  reported_result
0  CCCCOC(=O)C1CC[C@H]2[C@@H]3CCc4cc(OC(=O)c5cccc6c(=O)c7ccccc7[nH]c56)ccc4[C@H]3CC[C@]12C (stereo partly drawn)          15.3 µM
1  CC(Oc1ccccc1)C(=O)NNC(=O)OC(C)(C)C (stereo not drawn)         > 100 µM

Let us examine a further case.
Check OVCAR-3 ovarian data and give TGI for O=C1CCCCC12CCC/C2=N\O (stereo not drawn) .
> 100 µM

* * *

For each entry below, report its TGI value.
System: OVCAR-4 ovarian
protocol description: NCI tumour cell line growth inhibition, 48 h

Some compounds with known TGI results, for comparison:
>>> print(df.to_string())
                                   compound  reported_result
0  COC(=O)C1(SC)C2CCC3C2CCC31 (stereo not given)         > 100 µM
1  Cc1cc(S(=O)(=O)Nc2n[nH]c(N)n2)c(Cl)cc1Cl          > 10 µM
2    N/C1=C/C(=O)NC(=O)c2c(c3ccccc3oc2=O)C1         > 100 µM
3  CC(=O)OC1=CC2(OC(C)=O)CC(C)(C)C1C1C(=O)C=CC(=O)C12 (stereo not given)         > 100 µM

Using known records, supply TGI for Cc1c2c(c(C)c3c1[nH]c1ccccc13)CN(C)CC2
> 100 µM

* * *

System: TK-10 renal
protocol description: NCI tumour cell line growth inhibition, 48 h
For each entry below, report its TGI value.

>>> print(df.to_string())
                                   compound  measurement_type  reported_result
0  CC(=O)OCC1OC(n2c(Br)nc3c2c(=O)n(C)c(=O)n3C)C(OC(C)=O)C1OC(C)=O (stereo not given)               TGI         > 100 µM
1     C/C(=N\NC(=S)N1CCCCCC1)c1cccc2cccnc12               TGI         > 100 µM
2   O=C1/C(=C/c2ccc(O)cc2)COc2ccc(O)c(O)c21               TGI         > 100 µM

Dear colleague, could you send me TGI for each of the items below? Thanks.
1. CN(CCCCCl)P(=O)(OCc1ccc([N+](=O)[O-])o1)OCC1OC(n2cnc([N+](=O)[O-])c2N)C(O)C1O (stereo not given)
2. NC(Cc1ccc2nc3c4ccccc4c(=O)cc-3oc2c1)C(=O)O (stereo not given)

["> 100 µM", "> 100 µM"]

* * *

For each entry below, report its TGI value.
System: NCI/ADR-RES ovarian
protocol description: NCI tumour cell line growth inhibition, 48 h

compound	TGI
CCC(C)C1=C(O)[N+]2([O-])Oc3ccc(-c4c(O)c(O)c(-c5ccc(OC(C)=O)cc5)c(OC(C)=O)c4OC(C)=O)cc3OC2(C(C)CC)C(=O)N1O (stereo not drawn)	> 50 µM
CNc1ncnc2c1nc(NC1CCCC1)n2C1OC(CO)C(O)C1O (stereo not drawn)	> 100 µM

Let us examine a further case.
Using known records, supply TGI for O=C(O)c1c(Br)c(Br)c(Br)c(Br)c1C1c2ccc(O)cc2Oc2cc(O)ccc21
> 100 µM
